# Run Description: xn = mol fraction of the nth substance listed, in the solute-free solvent
# Condition Summary: 298.15 K; x2 = 0.6
Readout Type: solubility (g/100 g solution)
# respond with the number and nothing more

**Q:** What value of solubility (g/100 g solution) has been reported for the following compound? OCCN(CCO)c1nc(N2CCCCC2)c2nc(N(CCO)CCO)nc(N3CCCCC3)c2n1 + CO + O
**A:** 1.6

**Q:** Fill blank: measured solubility (g/100 g solution) of the compound Cc1ncc(C[n+]2csc(CCO)c2C)c(N)n1.O=[N+]([O-])[O-] + O + CC(C)O is ____.
**A:** 0.814

**Q:** I am curious: what solubility (g/100 g solution) value has been reported for S=c1[nH]ncs1 + CC(C)=O + O ?
**A:** 29.3

**Q:** Please report the recorded solubility (g/100 g solution) for S=c1[nH]ncs1 + CCCO + O .
**A:** 13.8

**Q:** Using the record for Cc1ncc(C[n+]2csc(CCO)c2C)c(N)n1.O=[N+]([O-])[O-] + O + CC(C)=O , report its solubility (g/100 g solution).
**A:** 1.16

**Q:** Quick one: solubility (g/100 g solution) for Cc1ncc(C[n+]2csc(CCO)c2C)c(N)n1.O=[N+]([O-])[O-] + O + CO ?
**A:** 2.19

**Q:** Given the entry CCCCCOC(=O)Nc1nc(=O)n(C2OC(C)C(O)C2O)cc1F (stereo unspecified) + CCOC(C)=O + CCCCCC , report its measured solubility (g/100 g solution).
**A:** 0.706

**Q:** State the recorded solubility (g/100 g solution) for this entry: OCCN(CCO)c1nc(N2CCCCC2)c2nc(N(CCO)CCO)nc(N3CCCCC3)c2n1 + CC(C)O + O
**A:** 11.6

**Q:** Need solubility (g/100 g solution), item S=c1[nH]ncs1 + CCO + O
**A:** 14.4

**Q:** Query (compound): OCCN(CCO)c1nc(N2CCCCC2)c2nc(N(CCO)CCO)nc(N3CCCCC3)c2n1 + CCO + O ; field requested: solubility (g/100 g solution)
**A:** 7.13

**Q:** Report solubility (g/100 g solution) for S=c1[nH]ncs1 + CO + O please.
**A:** 11.6

----------
# Run Description: xn = mol fraction of the nth substance listed, in the solute-free solvent
# Condition Summary: 313.15 K; x2 = 0.3
Readout Type: solubility (g/100 g solution)

**Q:** Could you share which solubility (g/100 g solution) value was measured for S=c1[nH]ncs1 + CCCO + O ?
**A:** 18.1

**Q:** Recorded solubility (g/100 g solution) of S=c1[nH]ncs1 + CO + O , please.
**A:** 9.03

**Q:** Consider the compound CCCCCOC(=O)Nc1nc(=O)n(C2OC(C)C(O)C2O)cc1F (stereo unspecified) + CCOC(C)=O + CCCCCC and give its measured solubility (g/100 g solution).
**A:** 0.197

**Q:** // solubility (g/100 g solution) lookup, key: OCCN(CCO)c1nc(N2CCCCC2)c2nc(N(CCO)CCO)nc(N3CCCCC3)c2n1 + CC(C)O + O
**A:** 14.9

**Q:** Quick one: solubility (g/100 g solution) for Cc1ncc(C[n+]2csc(CCO)c2C)c(N)n1.O=[N+]([O-])[O-] + O + CC(C)O ?
**A:** 0.151

**Q:** Please give the measured solubility (g/100 g solution) for this compound: CC(N)C(=O)O (stereo unspecified) + O + CCCO
**A:** 0.109

----------
# Run Description: xn = mol fraction of the nth substance listed, in the solute-free solvent
# Condition Summary: 288.15 K; x2 = 0.1436
Readout Type: solubility (g/100 g solution)
Give the figure by itself; no unit, no explanation.

**Q:** Look at this compound and give its reported solubility (g/100 g solution). CC(C)OC(=O)C(C)NP(=O)(OCC1OC(n2ccc(=O)[nH]c2=O)C(C)(F)C1O)Oc1ccccc1 (centres undefined) + CCO + O
**A:** 6.12

**Q:** Returns the measured solubility (g/100 g solution) for the input compound. Input: Nc1cccc(S(=O)(=O)c2cccc(N)c2)c1 + CCO + O
**A:** 0.277

**Q:** For COc1cc2c(cc1OC)-c1cc3ccc(OC)c(OC)c3c[n+]1CC2.[Cl-] + CCO + O , what is its reported solubility (g/100 g solution)?
**A:** 1.62

**Q:** Entry Cc1[nH]c(=O)c(C#N)cc1-c1ccncc1 + CCO + O has what solubility (g/100 g solution)?
**A:** 0.00163

----------
Can you tell me solubility (g/100 g solution) for the items I'm about to list?
# Run Description: xn = mol fraction of the nth substance listed, in the solute-free solvent
# Condition Summary: 293.15 K; x2 = 0.5

**Q:** Query: solubility (g/100 g solution); subject: OCCN(CCO)c1nc(N2CCCCC2)c2nc(N(CCO)CCO)nc(N3CCCCC3)c2n1 + CC(C)O + O
**A:** 8.69

**Q:** Report solubility (g/100 g solution) for OCCN(CCO)c1nc(N2CCCCC2)c2nc(N(CCO)CCO)nc(N3CCCCC3)c2n1 + CCO + O please.
**A:** 4.37

**Q:** Reported solubility (g/100 g solution), compound OCCN(CCO)c1nc(N2CCCCC2)c2nc(N(CCO)CCO)nc(N3CCCCC3)c2n1 + CO + O : ____
**A:** 0.513

**Q:** So what's the measured solubility (g/100 g solution) for this one? S=c1[nH]ncs1 + CO + O
**A:** 7.5

**Q:** Look up solubility (g/100 g solution) for this compound: Cc1ncc(C[n+]2csc(CCO)c2C)c(N)n1.O=[N+]([O-])[O-] + O + CC(C)O
**A:** 0.372

**Q:** For CCCCCOC(=O)Nc1nc(=O)n(C2OC(C)C(O)C2O)cc1F (stereo not given) + CCOC(C)=O + CCCCCCC , what is its reported solubility (g/100 g solution)?
**A:** 0.179

**Q:** Which measured solubility (g/100 g solution) value corresponds to Cc1ncc(C[n+]2csc(CCO)c2C)c(N)n1.O=[N+]([O-])[O-] + O + CC(C)=O ?
**A:** 0.556

**Q:** Consider the compound shown here: S=c1[nH]ncs1 + CCO + O What is its recorded solubility (g/100 g solution)?
**A:** 11.3

**Q:** // solubility (g/100 g solution) lookup, key: CC(N)C(=O)O (stereo not given) + O + CCO
**A:** 0.389

**Q:** State the recorded solubility (g/100 g solution) for this entry: CC(N)C(=O)O (stereo not given) + O + CCCO
**A:** 0.384

----------
Assign solubility (g/100 g solution) to each entry below.
# Run Description: xn = mol fraction of the nth substance listed, in the solute-free solvent
# Condition Summary: 323.15 K; x2 = 0.5
No unit in the answer, only the number.

**Q:** Entry under review: CC(N)C(=O)O (configuration not stated) + O + CC(C)O . Reported solubility (g/100 g solution)?
**A:** 0.372

**Q:** Need solubility (g/100 g solution) of S=c1[nH]ncs1 + CO + O , thanks.
**A:** 23.9

**Q:** Looking for the measured solubility (g/100 g solution) of OCCN(CCO)c1nc(N2CCCCC2)c2nc(N(CCO)CCO)nc(N3CCCCC3)c2n1 + CO + O , can you help?
**A:** 6.13

**Q:** Entry CC(N)C(=O)O (configuration not stated) + O + CC(C)=O has what solubility (g/100 g solution)?
**A:** 0.193

**Q:** What does the data say about its solubility (g/100 g solution)? Entry: CC(N)C(=O)O (configuration not stated) + O + CCO
**A:** 0.688

**Q:** Which solubility (g/100 g solution) value belongs to CC(N)C(=O)O (configuration not stated) + O + CCCO ?
**A:** 0.594

**Q:** May I ask what solubility (g/100 g solution) has been recorded for CC(N)C(=O)O (configuration not stated) + O + CO ?
**A:** 1.77

----------
# Run Description: xn = mol fraction of the nth substance listed, in the solute-free solvent
# Condition Summary: 308.15 K; x2 = 0.4
Readout Type: solubility (g/100 g solution)
// no unit, no text: just the number

**Q:** // query solubility (g/100 g solution) value for entry OCCN(CCO)c1nc(N2CCCCC2)c2nc(N(CCO)CCO)nc(N3CCCCC3)c2n1 + CCO + O
**A:** 7.99

**Q:** Sample S=c1[nH]ncs1 + CCO + O — what was its solubility (g/100 g solution)?
**A:** 16.1

**Q:** Looking for the measured solubility (g/100 g solution) of CCCCCOC(=O)Nc1nc(=O)n(C2OC(C)C(O)C2O)cc1F (configuration not stated) + CCOC(C)=O + CCCCCCC , can you help?
**A:** 0.154

**Q:** Which solubility (g/100 g solution) value belongs to Cc1ncc(C[n+]2csc(CCO)c2C)c(N)n1.O=[N+]([O-])[O-] + O + CC(C)O ?
**A:** 0.297

**Q:** # input compound: Cc1ncc(C[n+]2csc(CCO)c2C)c(N)n1.O=[N+]([O-])[O-] + O + CC(C)=O ; wanted: its solubility (g/100 g solution)
**A:** 0.393

**Q:** Suppose we examine the compound OCCN(CCO)c1nc(N2CCCCC2)c2nc(N(CCO)CCO)nc(N3CCCCC3)c2n1 + CO + O ; what solubility (g/100 g solution) value has been reported?
**A:** 0.676

**Q:** Fill in the blank: the reported solubility (g/100 g solution) of S=c1[nH]ncs1 + CO + O is ____.
**A:** 10.5

**Q:** // solubility (g/100 g solution) lookup, key: S=c1[nH]ncs1 + CCCO + O
**A:** 17.2

**Q:** Would you mind telling me what solubility (g/100 g solution) value was observed for OCCN(CCO)c1nc(N2CCCCC2)c2nc(N(CCO)CCO)nc(N3CCCCC3)c2n1 + CC(C)O + O ?
**A:** 15.3

**Q:** Given the compound CCCCCOC(=O)Nc1nc(=O)n(C2OC(C)C(O)C2O)cc1F (configuration not stated) + CCOC(C)=O + CCCCCC , what is its reported solubility (g/100 g solution)?
**A:** 0.296

**Q:** // query solubility (g/100 g solution) value for entry Cc1ncc(C[n+]2csc(CCO)c2C)c(N)n1.O=[N+]([O-])[O-] + O + CO
**A:** 1.96

**Q:** Any idea what its solubility (g/100 g solution) is? The compound is S=c1[nH]ncs1 + CC(C)=O + O
**A:** 29.6

Origin of measurements: the CheMixHub drug solubility set
